Data origin, for the record: PubChem BioAssay

Experiment: compound effects on lung adenocarcinoma cell viability – A549, calcein-AM fluorescence, 48 h, basal, profiling panel (AID 1162); note: test concentration not given here
Settings: higher = more signal
Decide using z-score: a value greater than or equal to -0.7 is label 1, a smaller one is label 0.

>>> category_label("CC[C@@H]1C=C(C(=O)O)[C@H](c2ccc(C(C)C)cc2)N1S(=O)(=O)c1ccc(C)cc1")
"label 1"
>>> category_label("O=C1C2C=CC(C(O)CCc3ccccc3)N(Nc3ccccc3)C2C(=O)N1c1ccccc1 (configuration not stated)")
"label 0"
>>> category_label("COCCOC(=O)N1C(=O)[C@@]2(c3ccccc31)[C@H](C(=O)N1CCCCCCC1)[C@H]1C(=O)O[C@H](c3ccccc3)[C@H](c3ccccc3)N1[C@@H]2c1ccccc1OCCO")
"label 1"
>>> category_label("COc1ccccc1CN1C(=O)c2ccccc2[C@](Cc2ccccc2I)(C(=O)NCc2ccccc2)[C@@H]1c1ccc(CO)cc1")
"label 1"
>>> category_label("[N-]=[N+]=NCc1ccccc1C[C@]1(C(=O)NCCN2CCOCC2)N=C(c2ccc(OCCCO)cc2)O[C@H]1c1ccccc1CN=[N+]=[N-]")
"label 1"

Lookup: Given the entry `C=C(COC)C(=O)CC[C@@H](OC(=O)c1ccccc1-c1ccccc1C(=O)O)c1ccc(CO)o1` , answer whether its z-score meets or surpasses -0.7.
Found: label 0

Lookup: Check this compound for z-score at or above -0.7: CC(c1ccccc1)C(O)C1C=CC2C(=O)N(c3ccccc3)C(=O)C2N1Nc1ccccc1F (configuration not stated)
Found: label 1
